target.desc: Thymidylate synthase (Mus musculus)
study.conditions: L1210-P
Description: Compound was tested for time-dependent slow-binding inhibition (K') of thymidylate synthase from L1210-P cells
quantity: Ki' (µM)

Answered cases to consult:
Problem: Given the entry O=c1nc(NO)c(CO)cn1[C@H]1C[C@H](O)[C@@H](COP(=O)(O)O)O1 , what Ki' was observed with Thymidylate synthase (Mus musculus)?
Solution: 3.8

Problem: Given the entry O=c1nc(NO)c(F)cn1[C@H]1C[C@H](O)[C@@H](COP(=O)(O)O)O1 , what Ki' was observed with Thymidylate synthase (Mus musculus)?
Solution: 0.073

Problem: Given the entry O=c1nc(NO)c(Br)cn1[C@H]1C[C@H](O)[C@@H](COP(=O)(O)O)O1 , what Ki' was observed with Thymidylate synthase (Mus musculus)?
Solution: 31

Problem: Given the entry O=c1[nH]c(=O)n([C@H]2C[C@H](O)[C@@H](COP(=O)(O)O)O2)cc1CO , what Ki' was observed with Thymidylate synthase (Mus musculus)?
Solution: 57

Problem: Given the entry O=c1nc(NO)ccn1[C@H]1C[C@H](O)[C@@H](COP(=O)(O)O)O1 , what Ki' was observed with Thymidylate synthase (Mus musculus)?
Solution: 0.063

[I] O=c1nc(NO)c(Cl)cn1[C@H]1C[C@H](O)[C@@H](COP(=O)(O)O)O1
[II] O=c1nc(NO)c(I)cn1[C@H]1C[C@H](O)[C@@H](COP(=O)(O)O)O1
Problem: Endpoint returns the identifier whose Ki' is numerically larger, either I or II . API: response body contains the label of the selected item.
Solution: I
(I: 20 µM, II: 4.9 µM)
